Here the recorded kon is given for each entry.
study target: T1, human TfR ectodomain fused to a mouse IgG1 Fc fragment (human, UniProt P02786 89-760)
T1 construct: extracellular domain; ectodomain fused to the N-terminal end of the Fc, made in-house; not shown: mouse IgG1 Fc fragment
T1 sequence (P02786 89-760): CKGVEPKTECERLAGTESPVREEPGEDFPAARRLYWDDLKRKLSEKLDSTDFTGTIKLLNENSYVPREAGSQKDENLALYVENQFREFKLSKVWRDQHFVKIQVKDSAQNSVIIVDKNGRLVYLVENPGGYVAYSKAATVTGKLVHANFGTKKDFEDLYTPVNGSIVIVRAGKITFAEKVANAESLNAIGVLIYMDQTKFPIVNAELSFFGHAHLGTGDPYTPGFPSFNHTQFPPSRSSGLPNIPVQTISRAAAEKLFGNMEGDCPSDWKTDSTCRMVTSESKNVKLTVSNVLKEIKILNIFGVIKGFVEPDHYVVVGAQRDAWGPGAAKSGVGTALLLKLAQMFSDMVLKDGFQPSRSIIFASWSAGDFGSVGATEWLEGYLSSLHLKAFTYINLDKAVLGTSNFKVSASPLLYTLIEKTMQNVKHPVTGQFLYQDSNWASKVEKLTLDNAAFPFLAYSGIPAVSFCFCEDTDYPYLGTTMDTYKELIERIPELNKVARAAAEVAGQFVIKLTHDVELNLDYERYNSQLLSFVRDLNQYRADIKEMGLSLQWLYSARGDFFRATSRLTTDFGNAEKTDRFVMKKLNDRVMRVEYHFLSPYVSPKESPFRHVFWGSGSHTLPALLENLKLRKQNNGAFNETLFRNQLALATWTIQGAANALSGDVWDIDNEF
test: SPR, kinetic

| binder | kon / M⁻¹ s⁻¹ |
| --- | --- |
| C5^V29 (VHH) VHH: EVQLVESGGGVVQPGGSLKLSCVASGADFSINFIRWYRQAPGKQREFVAGFTATGHTNYADSMKGRFTISRDNTKNAVYLQIDSLKPEDTAVYYCYMLDKWGQGTQVTVSS | 1.17e+06 |
| B8^V40 (VHH) VHH: EVQLVESGGGVVQPGGSLRLSCAASGEIKSINFMRWYRQAPGKQREWVSGFTRDGSTNYPDSAKGRFTISRDNAKNTVYLQIDSLKPEDTAVYYCYMLDTWGQGTQVTVSS | 672000 |
| H7 (VHH) VHH: EVQLVESGGGLVQAGGSLRLSCTASGRPISDYPMGWFRRAPGKDRELVASISRTGDGTYYANSMKERFTISRDNAQNTVSLQISSLKPEDTAVYYCGAGINPTRYWGQGTQVTVSS | 1.13e+06 |
| B8^V33 (VHH) VHH: EVQLVESGGGVVQPGGSLRLSCAASGEIFSINFMRWYRQAPGKQREWVAGFTRDGSTNYPDSAKGRFTISRDNAKNTVYLQIDSLKPEDTAVYYCYMLKTWGQGTQVTVSS | 710000 |

// provenance: patent US20230414780A1
